Values compiled from patent US20250320206A1.

compounds and their reported DC50
- Assayed system: STAT6 (Homo sapiens)
- Construct: These cells express endogenous STAT6; host or cells: HeLa LgBiT clone 4.14
- Measurement notes: Stat6 Degrader Assay (HiBiT based, HeLa LgBiT clone 4.14)
- Assay type: cell-based
- Stated conditions: HeLa LgBiT clone 4.14 HiBiT-STAT6, 4-24 h incubation; values given for compounds with >80% Emax; geometric mean; read-out: STAT6 degradation DC50
Experimental readout: DC50

INSERT INTO measurements (compound, result) VALUES
  ('CNc1ccn(-c2ccnc3c2cc([C@H](C)N2CC=C(c4c(C)cc(C(=O)N5CCC(CN6CCN(Cc7cc8c(cc7F)N(C7CCC(=O)NC7=O)C(=O)C87CC7)C[C@@H]6C)CC5)cc4F)CC2)n3C)c(=O)c1 (stereo partly drawn)', '1.9 nM'),
  ('CNc1cc(=O)n(-c2ccnc3c2cc([C@H](C)N2CC=C(c4c(C)cc(C(=O)N5CCC(CN6CCN(c7ccc8c(c7)n(C)c(=O)n8C7CCC(=O)NC7=O)CC6)CC5)cc4F)CC2)n3C)cc1F (stereo partly drawn)', '1.8 nM'),
  ('CNc1ccn(-c2ccnc3c2cc([C@H](C)N2CCC(c4c(C)cc(C(=O)N5CCC(CN6CCN(Cc7ccc8c(c7)n(C7CC7)c(=O)n8C7CCC(=O)NC7=O)C[C@@H]6C)CC5)cc4F)CC2)n3C)c(=O)c1 (stereo partly drawn)', '1.2 nM');

###

- Assayed system: STAT6 (Homo sapiens, UniProt P42226)
- Construct: These cells express endogenous STAT6; host or cells: HeLa LgBiT clone 4.14
- Sequence (P42226 whole entry): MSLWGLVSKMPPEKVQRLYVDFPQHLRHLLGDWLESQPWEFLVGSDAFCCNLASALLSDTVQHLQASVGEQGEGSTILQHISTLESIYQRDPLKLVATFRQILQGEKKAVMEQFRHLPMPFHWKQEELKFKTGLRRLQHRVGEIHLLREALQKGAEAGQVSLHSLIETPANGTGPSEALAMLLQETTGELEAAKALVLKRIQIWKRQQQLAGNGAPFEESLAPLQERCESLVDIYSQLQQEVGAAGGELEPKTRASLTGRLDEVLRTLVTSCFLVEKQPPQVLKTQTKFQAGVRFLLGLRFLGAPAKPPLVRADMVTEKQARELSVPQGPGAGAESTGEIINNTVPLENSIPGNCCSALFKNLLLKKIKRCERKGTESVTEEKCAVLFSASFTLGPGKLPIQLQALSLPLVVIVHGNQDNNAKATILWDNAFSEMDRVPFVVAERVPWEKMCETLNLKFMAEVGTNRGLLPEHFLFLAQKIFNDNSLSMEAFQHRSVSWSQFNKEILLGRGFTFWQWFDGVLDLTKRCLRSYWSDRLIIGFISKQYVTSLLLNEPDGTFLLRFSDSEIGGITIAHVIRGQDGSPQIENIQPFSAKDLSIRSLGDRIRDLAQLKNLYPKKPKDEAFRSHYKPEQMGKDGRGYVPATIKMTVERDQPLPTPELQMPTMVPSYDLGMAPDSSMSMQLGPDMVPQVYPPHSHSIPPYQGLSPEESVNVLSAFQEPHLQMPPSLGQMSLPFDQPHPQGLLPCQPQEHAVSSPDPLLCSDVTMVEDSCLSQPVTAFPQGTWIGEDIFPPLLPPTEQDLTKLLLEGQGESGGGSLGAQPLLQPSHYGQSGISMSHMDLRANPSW
- Measurement notes: Stat6 Degrader Assay (HiBiT based, HeLa LgBiT clone 4.14)
- Assay type: cell-based
- Stated conditions: HeLa LgBiT clone 4.14 HiBiT-STAT6, 4-24 h incubation; values given for compounds with >80% Emax; geometric mean; read-out: STAT6 degradation DC50
molecules and their reported DC50
Experimental readout: DC50 (nM)

INSERT INTO assay_data (molecule, experimental_readout, quantitative_readout) VALUES
  ('CNc1cc(=O)n(-c2ccnc3c2cc([C@H](C)N2CCC(c4ccc(C(=O)N5CCC(CN6CCN(Cc7ccc8c(c7)C7(CC7)C(=O)N8C7CCC(=O)NC7=O)C[C@@H]6C)CC5)cc4)CC2)n3C)cc1F (stereo partly drawn) [Example 3u36]', 'DC50', 1.4),
  ('CNc1ccn(-c2ccnc3c2cc([C@H](C)N2CC=C(c4c(C)cc(C(=O)N5CCC(CN6CCN(Cc7ccc8c(c7)C(C)(C)C(=O)N8C7CCC(=O)NC7=O)C[C@@H]6C)CC5)cc4F)CC2)n3C)c(=O)c1 (stereo partly drawn) [Example 3u175]', 'DC50', 1.3),
  ('CNc1ccn(-c2ccnc3c2cc([C@H](C)N2CC=C(c4c(C)cc(C(=O)N(C)c5ccc(C6CCN(Cc7ccc8c(c7)n(C)c(=O)n8[C@@H]7CCC(=O)NC7=O)CC6)cc5)cc4F)CC2)n3C)c(=O)c1 (single isomer, unassigned) [Example 3u227]', 'DC50', 0.04),
  ('CNc1ccn(-c2ccnc3c2cc([C@H](C)N2CC=C(c4c(C)cc(C(=O)N5CCC(CN6CCN(Cc7ccc8c(c7)n(C)c(=O)n8[C@@H]7CCC(=O)NC7=O)CC6)CC5)cc4F)CC2)n3C)c(=O)c1 (single isomer, unassigned) [Example 3u157]', 'DC50', 0.3),
  ('CNc1cc(=O)n(-c2ccnc3c2cc(CN2CCC(c4c(F)cc(C(=O)N5CCC(CN6CCN(Cc7ccc8c(c7)C(C)(C)C(=O)N8[C@H]7CCC(=O)NC7=O)C[C@@H]6C)CC5)cc4F)CC2)n3C)cc1F (single isomer, unassigned) [Example 3u49]', 'DC50', 1.7),
  ('CNc1ccn(-c2ccnc3c2cc(CN2CC=C(c4c(F)cc(C(=O)N5CCC(CN6CCN(Cc7ccc8c(c7)C(C)(C)C(=O)N8[C@H]7CCC(=O)NC7=O)C[C@@H]6C)CC5)cc4F)CC2)n3C)c(=O)c1 (single isomer, unassigned) [Example 3u46]', 'DC50', 5.8);
